test system: NCI-H226 lung; experiment: NCI tumour cell line growth inhibition, 48 h

COMPOUND | QUALIFIER | TGI (µM)
CCCCCC(C/C=N/N(C)C)C(O)(C(F)(F)F)C(F)(F)F (stereo not given) | > | 100
C[C@]12C[C@H](CCCCCCNCCOC(=O)NCCCc3ccc(N(CCCl)CCCl)cc3)C3=C4CCC(=O)C=C4CCC3C1CC[C@@H]2O (stereo not given in full) | = | 4.15
COC(=O)C1=C(C)NC(C)=C(C(=O)OC)C1c1ccccc1NO | > | 100
Clc1nc(Cl)c2ncn(CC3(Cn4cnc5c(Cl)nc(Cl)nc54)COC3)c2n1 | = | 3.68
COc1cc(C=O)cc(/C=N/n2c3ccccc3c3ccccc32)c1O | > | 100

###

test system: IGROV1 ovarian; assay: NCI tumour cell line growth inhibition, 48 h

COMPOUND | TGI
O=C(O)c1cc(CC2Cc3cc4c(cc3C2=O)CCC4)cc2c1CCC2 (stereo unspecified) | > 100 µM
COC12C=C/C(=C(/C(=O)OCc3cncnc3)C(=O)CCCCCCCCC3(OC)C=C/C(=C(/C(=O)OCc4cncnc4)C(=O)CCCCCCCC1)O3)O2 | 1.96 µM
c1coc(CNc2ncnc3[nH]ncc23)c1 | > 100 µM
O=C1Nc2ccccc2C1=Nc1cccc2ncccc12 | > 100 µM
Cn1c(=O)c2c(nc3n(CCCCl)c(=O)ccn23)n(C)c1=O | > 100 µM
Cc1ccc(C2=Nn3c(nc4sc(C)c(C)c4c3=O)SC2)cc1 | > 100 µM
COc1ccc(/C=C2\NC(=S)N(/C=C3\C(=O)Oc4ccccc4C3=O)C2=O)cc1OC | > 100 µM
Cc1ccc(S(=O)(=O)N2CCC(=O)c3cc(Br)ccc32)cc1 | > 100 µM
CN1CCc2c3n(c4cc(Br)ccc24)[C@H](O)CCCC31 (stereo partly specified) | > 10 µM
C[C@H](NC(=O)[C@@H](C)N)[C@H](Oc1ccc2c(cnn2-c2ccc(F)cc2)c1)c1ccc2c(c1)OCCO2 | 5.07 µM
Fc1ccc(Oc2nc3ccc(C(F)(F)F)cc3nc2-c2ccccc2)cc1 | > 100 µM
CSc1nc(NC2OCC(O)C(O)C2O)c(N)c(=O)[nH]1 (stereo unspecified) | > 100 µM
COC(=O)[C@H](Cc1ccccc1)NP(=O)(OCCC#N)OCC1OC(n2cc(C)c(=O)[nH]c2=O)CC1N=[N+]=[N-] (stereo partly specified) | > 100 µM
Cc1cccc(/C=C/c2c(C(=O)/C=C/c3ccccc3)c(C)nc3ccccc23)c1 | 4 µM
CCOC(=O)Nc1ccc2c(c1)/C(=N\NC(N)=S)c1ccccc1-2 | 28.1 µM
C=C(CCOC)CCC1CCCCC(=C)[C@H]1OC(C)=O (stereo partly specified) | > 100 µM
CC[C@@]1(O)C(=O)OCc2c1cc1n(c2=O)Cc2c-1nc1ccccc1c2/C=N\NC(=O)C(N)CO (stereo partly specified) | > 100 µM
C[C@]12C[C@H](CCCCCCNCCOC(=O)NCCCc3ccc(N(CCCl)CCCl)cc3)C3=C4CCC(=O)C=C4CCC3C1CC[C@@H]2O (stereo partly specified) | 2.11 µM
CCN1C(=O)N(CC)C2C1NN=c1s/c(=C\c3cccc(F)c3)c(=O)n12 (stereo unspecified) | > 100 µM
O=C1NC2=C(CCCC/C2=N\O)C12CCCCC2 | > 100 µM
O/N=C1/C(=C/c2ccc3c(c2)OCO3)CCCC1C(NO)c1ccc2c(c1)OCO2 (stereo unspecified) | 86.5 µM
CC(=O)C1(Cc2cccc3ccccc23)S(=O)(=O)OCCOS1(=O)=O | 15.1 µM
Fc1ccc(C2CC(c3cccc(Nc4ccncc4)c3)=NN2c2ccc(Cl)cc2)cc1 (stereo unspecified) | 3.37 µM
COc1cccc(N2CCN(CC(=O)N3CCN(c4nnc(-c5ccc(Cl)cc5)c(-c5ccc(Cl)cc5)n4)CC3)CC2)c1 | 84.7 µM
COc1ccc([C@H]2CC(=O)C[C@H](c3ccc(OC)cc3)C23C(=O)c2ccccc2C3=O)cc1 | > 100 µM
CC1(C)C2C=C(CCN3CCOCC3)CC1C2 (stereo unspecified) | > 100 µM
CN1C2=C(CC3=C1CC(C)(C)CC3=O)C(=O)CC(C)(C)C2 | > 100 µM
O=[N+]([O-])c1ccc(C[P+](c2ccccc2)(c2ccccc2)c2ccccc2)cc1 | > 100 µM
Cc1ccc(Cc2n[nH]c(=O)n2Nc2ccccc2)cc1 | > 100 µM
CC1=C(C(=O)Nc2cc(=O)n(C)c(=O)n2C)C(c2ccco2)C(C(=O)Nc2cc(=O)n(C)c(=O)n2C)=C(C)N1 | > 100 µM
CCOC(=O)c1cc(=O)c2ccnc3c2n1CCS3 | > 100 µM
N#Cc1ccc(OCc2nc(N)nc(N)c2-c2ccc(Cl)c(Cl)c2)cc1 | > 100 µM
CN(O)C(=O)SCC(NC(=O)CCC(N)C(=O)O)C(=O)NCC(=O)O (stereo unspecified) | > 2000 µM
CC(C)Cn1cnc2c(SCc3ccc(Cl)cc3Cl)nc(N)nc21 | > 100 µM
O=C(O)c1n[nH][nH]c1=S | > 100 µM
NC(=O)C(=O)N/N=C1\C(=O)N(c2ccc(Cl)cc2Cl)C(=O)C1C(=O)Nc1ccc(Cl)cc1Cl (stereo unspecified) | > 100 µM
COc1cc(C(O)CCBr)c(OC)cc1C (stereo unspecified) | > 100 µM
O=c1[nH]nc(-c2ccccc2)n1Nc1ccccc1 | > 100 µM
COc1ccc2[nH]cc(-c3ccc(-c4c[nH]c5ccc(OC)cc45)s3)c2c1 | 51 µM
CSC(=Nc1nnc(-c2ccc([N+](=O)[O-])cc2)s1)SC | > 91.6 µM
CCN(CC)c1c(C(=O)/C=C/c2ccc(Cl)cc2)c(-c2ccccc2)nn(C)c1=O | 4.21 µM

###

system: HT29 colon; assay: NCI tumour cell line growth inhibition, 48 h
READOUT NAME: GI50

COMPOUND | ENDPOINT RESULT
COc1cccc(N2CCN(CC(=O)N3CCN(c4nnc(-c5ccc(Cl)cc5)c(-c5ccc(Cl)cc5)n4)CC3)CC2)c1 | 6.47 µM
C=C(CN1C(=O)CN(C)C1=O)c1ccc(C(=O)Nc2ccccc2N)cc1 | 10.9 µM
COc1ccc2[nH]cc(-c3ccc(-c4c[nH]c5ccc(OC)cc45)s3)c2c1 | 2.06 µM
CCN(Cc1cc(Nc2nc(C)cn3c(-c4cn[nH]c4)cnc23)sn1)C(C)(C)CO | 0.0725 µM
O=c1[nH]nnc2c1ncn2C1OC(CO)C(O)C1O (stereo not given) | 13 µM

###

test system: OVCAR-4 ovarian; test: NCI tumour cell line growth inhibition, 48 h
READOUT NAME: TGI

COMPOUND | ASSAY SYSTEM | READOUT NAME | ENDPOINT RESULT
CCOC(=O)c1nnsc1NC(=O)Nc1ccc(Cc2ccc(NC(=O)Nc3snnc3C(=O)OCC)cc2)cc1 | OVCAR-4 ovarian | TGI | > 100 µM
CSc1nc(NC2OCC(O)C(O)C2O)c(N)c(=O)[nH]1 (stereo not given) | OVCAR-4 ovarian | TGI | > 100 µM
CN(CCO)CC[C@H](CSc1ccccc1)Nc1ccc(S(=O)(=O)NC(=O)c2ccc(N3CCC([C@@H](O)c4ccccc4-c4ccc(Cl)cc4)CC3)cc2)cc1S(=O)(=O)C(F)(F)F | OVCAR-4 ovarian | TGI | > 100 µM
O=C(O)CCCSC(=O)Nc1ccc(N=Nc2ccccc2)cc1 | OVCAR-4 ovarian | TGI | > 100 µM
COc1ccc(CCCCl)c(C2=NCCc3cc(OC)c(OC)cc32)c1 | OVCAR-4 ovarian | TGI | > 100 µM

###

system: SW-620 colon; test: NCI tumour cell line growth inhibition, 48 h
Quick reference: TGI of the listed items.

MOLECULE | TGI
COc1ccc(/C=C2\NC(=S)N(/C=C3\C(=O)Oc4ccccc4C3=O)C2=O)cc1OC | > 100 µM
COc1ccc2nc3cc(Cl)ccc3c(NCCNC(=O)Cn3c(=O)n(C)c(=O)c4c3nc3c(c(=O)n(C)c(=O)n3C)[n+]4[O-])c2c1 | > 71.7 µM
Cc1nnn[n-]1.N.N.N.N.N.[Cl-].[Co+3] | > 100 µM
[N-]=[N+]=NC(CCl)c1cn([C@H]2C[C@H](O)[C@@H](CO)O2)c(=O)[nH]c1=O (some centres undefined) | > 100 µM
C[C@]12CC[C@@H]3c4ccc(O)cc4CC[C@H]3[C@@H]1CC[C@@H]2OP(=O)(O)O | > 100 µM
ClCc1cccc2c(CCl)cccc12 | 19.1 µM
Cc1c(C)c(C)c(-n2c(=O)n(C)c(=O)n2-n2c(=O)n(C)c(=O)n2-c2c(C)c(C)c(C)c(C)c2C)c(C)c1C | > 100 µM
O=C1C(N2CCN(c3ccccn3)CC2)=C(Cl)C(=O)c2ncccc21 | 2.78 µM
CC(C)Oc1c(O)c2c3c(oc(=O)n3C=CC2c2ccccc2)c1OC(C)C (centres undefined) | 82.8 µM

Value source: PubChem BioAssay (NCI)
